These measurements were taken from paper PMC9551036.

# protocolDetails: Cell viability assay (CellTiter Glo) in a panel of cell lines;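 also: percent of DMSO-treated control cells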
# Format: cell-based, human
# assayConditions: human, A549 cells, A549; log10 conc -6.50031 mol/l
readoutType: viability at 0.316 µM (%)

compound	readoutType	measValue
Cc1ncsc1-c1ccc(C(CCC(C)CCN2CCC(c3ccc4c(c3)n(C3CCCC3)c3nc(=O)c5c(Br)cccc5n43)CC2)NC(=O)C2CC(O)CN2C(=O)C(NC(=O)C2(F)CC2)C(C)(C)C)cc1 (stereo not shown) [ACBI2]	viability at 0.316 µM	43.1

---

# testSystem: SMARCA2 (Homo sapiens)
# Sequence (P51531 whole entry): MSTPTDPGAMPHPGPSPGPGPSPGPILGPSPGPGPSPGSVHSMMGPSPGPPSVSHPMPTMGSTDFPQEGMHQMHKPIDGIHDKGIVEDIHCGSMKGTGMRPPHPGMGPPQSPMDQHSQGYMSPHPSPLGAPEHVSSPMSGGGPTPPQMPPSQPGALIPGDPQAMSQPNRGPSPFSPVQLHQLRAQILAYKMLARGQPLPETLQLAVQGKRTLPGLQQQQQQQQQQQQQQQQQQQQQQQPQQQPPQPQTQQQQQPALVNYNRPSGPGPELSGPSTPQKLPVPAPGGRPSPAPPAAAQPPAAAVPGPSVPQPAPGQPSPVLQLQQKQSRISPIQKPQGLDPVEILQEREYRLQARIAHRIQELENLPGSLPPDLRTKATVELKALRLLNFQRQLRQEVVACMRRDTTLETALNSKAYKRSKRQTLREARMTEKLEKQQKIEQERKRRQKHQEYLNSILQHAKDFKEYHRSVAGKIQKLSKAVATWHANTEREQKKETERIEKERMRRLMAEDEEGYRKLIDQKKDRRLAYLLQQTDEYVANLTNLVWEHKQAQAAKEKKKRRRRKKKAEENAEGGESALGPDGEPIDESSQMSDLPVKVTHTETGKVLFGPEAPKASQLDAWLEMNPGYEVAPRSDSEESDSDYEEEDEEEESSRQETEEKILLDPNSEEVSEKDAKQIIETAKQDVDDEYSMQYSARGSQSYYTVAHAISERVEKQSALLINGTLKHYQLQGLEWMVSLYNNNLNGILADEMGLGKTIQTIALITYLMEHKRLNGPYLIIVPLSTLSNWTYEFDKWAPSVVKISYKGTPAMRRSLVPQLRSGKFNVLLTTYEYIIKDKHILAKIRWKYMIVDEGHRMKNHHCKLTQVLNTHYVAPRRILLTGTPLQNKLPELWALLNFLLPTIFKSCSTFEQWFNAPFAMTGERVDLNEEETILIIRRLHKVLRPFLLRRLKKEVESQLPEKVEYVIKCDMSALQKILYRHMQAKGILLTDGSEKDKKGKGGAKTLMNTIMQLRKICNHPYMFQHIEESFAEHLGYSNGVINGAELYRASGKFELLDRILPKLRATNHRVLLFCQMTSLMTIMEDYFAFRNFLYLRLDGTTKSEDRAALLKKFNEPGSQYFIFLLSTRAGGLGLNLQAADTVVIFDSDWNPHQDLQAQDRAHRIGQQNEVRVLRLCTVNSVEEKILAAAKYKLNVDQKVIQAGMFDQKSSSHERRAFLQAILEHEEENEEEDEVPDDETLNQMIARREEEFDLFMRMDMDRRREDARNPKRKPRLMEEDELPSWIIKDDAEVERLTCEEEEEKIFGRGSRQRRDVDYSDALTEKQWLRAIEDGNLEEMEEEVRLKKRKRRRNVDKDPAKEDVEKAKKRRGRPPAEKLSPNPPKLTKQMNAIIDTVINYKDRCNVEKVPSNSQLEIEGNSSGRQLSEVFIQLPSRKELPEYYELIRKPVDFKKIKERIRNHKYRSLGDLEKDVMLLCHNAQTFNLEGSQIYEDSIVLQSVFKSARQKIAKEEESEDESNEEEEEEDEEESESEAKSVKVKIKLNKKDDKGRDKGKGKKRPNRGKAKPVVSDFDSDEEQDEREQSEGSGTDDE
# protocolDetails: SMARCA2 capillary electrophoresis protein assay in RKO cells
# Assay type: cell-based
# Set-up: endogenous in cells; host or cells: RKO, NCI-H1568, A549, HCT116, LU99, HCC-364, HCT-15, HCC4006, SK-N-AS
# assayConditions: RKO (4 h); mean ± SD
readoutType: SMARCA2 Dmax

Cc1ncsc1-c1ccc([C@H](CCC(C)(C)CCN2CCC(c3ccc4c(c3)n(C3CCCC3)c3nc(=O)c5c(Br)cccc5n43)CC2)NC(=O)[C@@H]2C[C@@H](O)CN2C(=O)[C@@H](NC(=O)C2(F)CC2)C(C)(C)C)cc1 74 ± 5%
Cc1ncsc1-c1ccc([C@H](COC(C)(C)CN2CCC(c3ccc4c(c3)n(C3CCCC3)c3nc(=O)c5c(Br)cccc5n43)CC2)NC(=O)[C@@H]2C[C@@H](O)CN2C(=O)[C@@H](NC(=O)C2(F)CC2)C(C)(C)C)cc1 69 ± 4%
